ASSAY_SYSTEM: MHC-II DRB1*15:01 (Homo sapiens, UniProt P01903+P01911)
Construct: purchased ProImmune
PROTOCOL_DESCRIPTION: Cell-free REVEAL class II binding assay
TEST_PARAMETERS: signal of test peptide as percentage of allele-specific positive control peptide, fluorescence, conformation-specific monoclonal antibody
ENDPOINT_LABEL: Binding Score (%)

{"columns": ["SEQ", "TEST_VALUE"],
 "data": [
  ["KTDPWFAHRTPMPKI [synthetic wild type FVIII 15 mer peptide, region of ns-SNP R776G]", 0.1],
  ["YPHGITDVRPLYSRR [synthetic wild type FVIII 15 mer peptide, region of ns-SNP R484H]", 0.4],
  ["TLTLFPFSGETVFMS [synthetic wild type FVIII 15 mer peptide]", 41.4],
  ["PIIARYIRLHPTHYS [synthetic wild type FVIII 15 mer peptide]", 917.4],
  ["DVRPLYSRRLPKGVK [synthetic wild type FVIII 15 mer peptide, region of ns-SNP R484H]", 56.2],
  ["QKTMKVTGVTTQGVK [synthetic wild type FVIII 15 mer peptide, region of ns-SNP M2238V]", 0.8],
  ["RQNVEGSYDGAYAPV [synthetic wild type FVIII 15 mer peptide, region of ns-SNP D1241E]", 0.0]
]}
